Quick reference for protein stability index among some sequences
Test: protein stability index of a GFP-peptide fusion (GPS, HEK-293T) (PSI 1-6); higher = more stable;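 also: 24-mer peptide tiles fused after GFP, lentivirally expressed, FACS-sorted into six equal bins by GFP/DsRed ratio, decoded by Illumina sequencing, PSI is the read-weighted mean bin number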
Details: treatment: DMSO; c terminus: a fixed tail appended
MEASURED PARAMETER: protein stability index

[[record]]
sequence_record = "GVGKSAMTMQFISHRFPEDHDPTI [RIT1]"
measured_parameter = "protein stability index"
numeric_result = 3.4

[[record]]
sequence_record = "WSKTQVLDWISYQVEKNKYDASAI [ELF3]"
measured_parameter = "protein stability index"
numeric_result = 2.59

[[record]]
sequence_record = "PQGSGFCLGQLNLEQRSESVRRTR [SMAD6]"
measured_parameter = "protein stability index"
numeric_result = 4.39

[[record]]
sequence_record = "AAQELENQMKERQGLFFDMEAYLP [TMEM120A]"
measured_parameter = "protein stability index"
numeric_result = 3.69

[[record]]
sequence_record = "HGGLYKPVQCHPSTGYCWCVLVDT [SMOC2]"
measured_parameter = "protein stability index"
numeric_result = 2.46

[[record]]
sequence_record = "SLNKQIAQLQDFVRAKGSQSGRHL [STX5]"
measured_parameter = "protein stability index"
numeric_result = 3.08

[[record]]
sequence_record = "AITRVSDRFSGETSAAALSPMSAA [SMTNL2]"
measured_parameter = "protein stability index"
numeric_result = 4.06

[[record]]
sequence_record = "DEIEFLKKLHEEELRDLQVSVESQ [PRPH]"
measured_parameter = "protein stability index"
numeric_result = 3.58

[[record]]
sequence_record = "QLLADEKMKQLTEETEVLAHEIER [TRIM35]"
measured_parameter = "protein stability index"
numeric_result = 5.09

[[record]]
sequence_record = "HYEFNLSRMKFRGNGALSNISDLP [LCOR]"
measured_parameter = "protein stability index"
numeric_result = 2.7

[[record]]
sequence_record = "QTMAGSSPNTPQPVPEQSALCQGL [FAM104A]"
measured_parameter = "protein stability index"
numeric_result = 4.75

[[record]]
sequence_record = "TAQVQKDARIGEAEAKRDAGIREA [FLOT1]"
measured_parameter = "protein stability index"
numeric_result = 5.34

[[record]]
sequence_record = "PSRYAAIYNGGVEAVSTLLGAVAV [SLC19A2]"
measured_parameter = "protein stability index"
numeric_result = 2.28

[[record]]
sequence_record = "HCASPPPSSNNKELFYRVNYIGTK [NSDHL]"
measured_parameter = "protein stability index"
numeric_result = 3.18

[[record]]
sequence_record = "HAASDPSSSSGRLSEPDPSHTLEE [SMOC2]"
measured_parameter = "protein stability index"
numeric_result = 5.31

[[record]]
sequence_record = "KVLRKAGLSAGYVDAGAEPGRSRM [LPCAT4]"
measured_parameter = "protein stability index"
numeric_result = 3.6

[[record]]
sequence_record = "EPPKCLDPCVISQEIMEKYNIKLK [CFHR2]"
measured_parameter = "protein stability index"
numeric_result = 2.84

[[record]]
sequence_record = "GDVLLDETLKHIKATEPTETVQTW [GOLPH3L]"
measured_parameter = "protein stability index"
numeric_result = 4.41

[[record]]
sequence_record = "LKNKKGAKQQKFIKAVTHQVKFGQ [ZC3H15]"
measured_parameter = "protein stability index"
numeric_result = 3.14

[[record]]
sequence_record = "DTRSGFWYVCRTQGVEGDHCVTSD [TRIM35]"
measured_parameter = "protein stability index"
numeric_result = 2.89

[[record]]
sequence_record = "GADPKSVVCAFFKQGQCTKGDKCK [ZC3H15]"
measured_parameter = "protein stability index"
numeric_result = 3.82

[[record]]
sequence_record = "FLHLRTHTEERPYECNHCGKGFRH [ZNF8]"
measured_parameter = "protein stability index"
numeric_result = 2.79

[[record]]
sequence_record = "AEFILLGLLEAPGLQPVVFVLFLF [OR3A1]"
measured_parameter = "protein stability index"
numeric_result = 2.68

[[record]]
sequence_record = "ESFGQNYPEEADGTLDCISMALTC [RBBP5]"
measured_parameter = "protein stability index"
numeric_result = 3.72

[[record]]
sequence_record = "DQEPLLSIDLGTAHSAAVTASGDC [NEK8]"
measured_parameter = "protein stability index"
numeric_result = 5.07

[[record]]
sequence_record = "HDYHGILVDEEEKVLIQKNLGPKS [ADD1]"
measured_parameter = "protein stability index"
numeric_result = 4.79

[[record]]
sequence_record = "TIVFLDKEVFASRISNPSDDNSCE [PCMTD2]"
measured_parameter = "protein stability index"
numeric_result = 3.8

[[record]]
sequence_record = "AFHINKGLVKKYMNSLLIGELSPE [FADS1]"
measured_parameter = "protein stability index"
numeric_result = 2.45

[[record]]
sequence_record = "AAAYGHALEQYEGESWRESARYLE [P3H4]"
measured_parameter = "protein stability index"
numeric_result = 4.19

[[record]]
sequence_record = "NGTKADGKDAKTTNGHGGEAAEGK [TRIM29]"
measured_parameter = "protein stability index"
numeric_result = 5.48

[[record]]
sequence_record = "MLSIFYFAIPVGSGLGYIAGSKVK [SPNS1]"
measured_parameter = "protein stability index"
numeric_result = 2.83

[[record]]
sequence_record = "KPVGRQACDLQPCPTEPPDDSCQD [ADAMTSL2]"
measured_parameter = "protein stability index"
numeric_result = 5.46

[[record]]
sequence_record = "LKDIHDDQDYLHSLGKARTAQVQK [FLOT1]"
measured_parameter = "protein stability index"
numeric_result = 4.67

[[record]]
sequence_record = "APPRRLRSRKVSCPLTRSNGDLSR [FCHO1]"
measured_parameter = "protein stability index"
numeric_result = 4.16

[[record]]
sequence_record = "QEQLSLSQRQAKELKLEQQEAAER [LRRC45]"
measured_parameter = "protein stability index"
numeric_result = 5.5

[[record]]
sequence_record = "GLSDRAKEAKEFLVQLRNMVQQIQ [TRIM9]"
measured_parameter = "protein stability index"
numeric_result = 2.17

[[record]]
sequence_record = "VTKSPEKRSSLPRPSSILPPRRGV [MAP2]"
measured_parameter = "protein stability index"
numeric_result = 4.58

[[record]]
sequence_record = "LRDGAVPLPESRREIEELLAEAKY [KCTD10]"
measured_parameter = "protein stability index"
numeric_result = 4.5

[[record]]
sequence_record = "VMRMLGQTPTKEELDAIIEEVDED [TNNC2]"
measured_parameter = "protein stability index"
numeric_result = 5.41

[[record]]
sequence_record = "ALDSADLPPPSALKKGSKEKQADF [NFE2L1]"
measured_parameter = "protein stability index"
numeric_result = 5.33

